# Target System: human FGFR2 on cells (KATO-III gastric cancer cells; SNU-16 cells; Ba/F3 cells engineered to express human FGFR2b) (human) (UniProt P21802)
# Assay Summary: flow cytometry on KATO-III cells expressing human FGFR2
Hi! Just check whether EC50 is below 0.9 nM. Below gives true (1), equal or above gives false (0).

Query :: Dear colleague, could you confirm whether EC50 of antibody H3F7-a (murine chimeric anti-FGFR2 antibody) (antibody, human IgG1, kappa, V domains shown) VH: EVQLQQSGPELVKPGASVKIPCKASGYTFTDYNMDWVKQSHGKSLEWIGDINPKNGETFYNQKFKGKATLTVDRSSSTAYMELRSLTSEDTAVYFCAKRDLNWYFDYWGQGTTLTVSS VL: DIQMTQSSSYLSVSLGGRVTITCKASDHINNWLAWYQQKPGNAPRLLISGATSLETGVPSRFSGSGSGKDYTLSITSLQTEDVATYYCQQYWSTPWTFGGGTKLEIKR falls below 0.9 nM? Thanks.
Result :: false (0)

Query :: Dear colleague, could you confirm whether EC50 of antibody D12D8 (murine chimeric anti-FGFR2 antibody) (antibody, human IgG1, kappa, V domains shown) VH: QVQLQQSGAELARPGASVKLSCKASGYTFTNYGISWVKQRTGQGLEWIGEIYPRSGNTYYNEKFKGKATLTADKSSSTAYMELRSLTSEDSAVYFCARGDYSNSDYWGQGTTLTVSS VL: DIQMTQTTSSLSASLGDRVTISCRASQDITDHLNWYQQKPDGTVKLLIYYTSRLHSGVPSRFSGSGSGTDYSLTISNLEQEDIATYFCQQGNTLPRTFGGGTKLEIKR falls below 0.9 nM? Thanks.
Result :: false (0)

Query :: Dear colleague, could you confirm whether EC50 of antibody F6B6 (murine chimeric anti-FGFR2 antibody) (antibody, human IgG1, kappa, V domains shown) VH: QVQLKQSGPGLVQPSQSLSITCTVSGFSLTNYGVHWVRQSPGKGLEWLGVIWSDGSTDYDAAFISRLSISTDNSKSQVFFKMNSLQAADTAIYYCARKGDYDYDNYAMDYWGQGTSVTVSS VL: DVVITQSPATLSVTPGDSVSLSCRASQSISNNLHWYQQKSHESPRLLIKYASQSISGIPSRFSGSGSGTDFTLSINSVETEDFGMYFCQQSNSWPLTFGAGTKLELKR falls below 0.9 nM? Thanks.
Result :: false (0)

Query :: Dear colleague, could you confirm whether EC50 of antibody A1B2 (murine chimeric anti-FGFR2 antibody) (antibody, human IgG1, kappa, V domains shown) VH: EVQLQQSGAELVRPGASVKLSCTASGFNIKDYYMHWVKQRPEQGLEWIGRIDPEDGDTEYAPKFQGKATMTADTSSNTAYLQLSSLTSEDTAVYYCTTYYYVSTYEDYWGQGTTLTVSS VL: QIVLTQSPAIMSASLGEEITLTCSASSSVSHMHWYQQKSGTSPKLLIYSTSNLASGVPSRFSGSGSGTFYSLTISSVEAEDAADYYCHHWSSWTFGGGTKLEIKR falls below 0.9 nM? Thanks.
Result :: true (1)

Query :: Dear colleague, could you confirm whether EC50 of antibody G11B8 (murine chimeric anti-FGFR2 antibody) (antibody, human IgG1, kappa, V domains shown) VH: EVQLQQSGPELVKPGASVKIPCKASGYTFTDYNMDWVKQSHGKSLEWIGDINPKNGETFYNQKFKGKATLTVDRSSNTAYMELRSLTSEDTAVYFCAKRDLNWYFDYWGQGTTLTVSS VL: DIQMTQSSSYLSVSLGGRVTITCKASDHINNWLAWYQQKPGNAPRLLISGATSLETGVPSRFSGSGSGKDYTLSITSLQTEDVATYYCQQYWSTPWTFGGGTKLEIKR falls below 0.9 nM? Thanks.
Result :: false (0)
